# Measurement protocol: Apparent oral clearance in healthy human at […], po
# Assay type: ADME, organism-based
# Set-up: route oral
# Settings: in vivo
Assay readout: CL/F

Identify measured CL/F associated with `CC[C@@H]([C@H](C)O)n1ncn(-c2ccc(N3CCN(c4ccc(OC[C@@H]5CO[C@@](Cn6cncn6)(c6ccc(F)cc6F)C5)cc4)CC3)cc2)c1=O`
822 mL/min

* * *

# Measurement protocol: Terminal half life in healthy human at […], po
# Format: ADME, organism-based
# Parameters: route oral
# Settings: in vivo
Assay readout: half-life
Returns: string containing the numeric result and its unit.

Return the recorded half-life value; entry: `CC[C@@H]([C@H](C)O)n1ncn(-c2ccc(N3CCN(c4ccc(OC[C@@H]5CO[C@@](Cn6cncn6)(c6ccc(F)cc6F)C5)cc4)CC3)cc2)c1=O`
1300 min

Data origin, for the record: ChEMBL document CHEMBL1649520
